# Test system: Staphylococcus auricularis
# ASSAY_TEXT: Antibacterial activity against methicillin resistant coagulase-negative Staphylococcus auricularis clinical isolate by broth microdilution method
# Format: functional
MEASURED_ATTRIBUTE: MIC90 (µg/mL)
# unit: µg/mL | format: bare number

ITEM_SMILES	DATA_VALUE
CC(=O)N[C@@H]1[C@H](Oc2c3cc4cc2Oc2ccc(cc2Cl)[C@@H](O[C@@H]2O[C@@H](CO)[C@@H](O)[C@H](O)[C@@H]2NC(C)=O)[C@@H]2NC(=O)[C@H](NC(=O)[C@@H]4NC(=O)[C@H]4NC(=O)[C@@H](Cc5ccc(c(Cl)c5)O3)NC(=O)[C@H](N)c3ccc(O)c(c3)Oc3cc(O)cc4c3)c3ccc(O)c(c3)-c3c(O[C@H]4O[C@H](CO)[C@@H](O)[C@@H](O)[C@@H]4O)cc(O)cc3[C@@H](C(=O)O)NC2=O)O[C@@H](CO)[C@@H](O)[C@@H]1O	32

Now look at this one.
Request: Recall and state the measured MIC90 for `CC(=O)NC[C@H]1CN(c2ccc(N3CCOCC3)c(F)c2)C(=O)O1` .
Result: 2

----------
# Tested on: Streptococcus pyogenes
# ASSAY_TEXT: Antibacterial activity against Streptococcus pyogenes group A clinical isolate by broth microdilution method
# Format: functional
The compounds listed here are annotated with their MIC50.
# unit: µg/mL | format: bare number

ITEM_SMILES	TARGET_OR_SYSTEM	ENDPOINT_UNIT	MIC50
CC[C@H]1OC(=O)[C@H](C)[C@@H](O[C@H]2C[C@@](C)(OC)[C@@H](O)[C@H](C)O2)[C@H](C)[C@@H](O[C@@H]2O[C@H](C)C[C@H](N(C)C)[C@H]2O)[C@](C)(O)C[C@@H](C)C(=O)[C@H](C)[C@@H](O)[C@]1(C)O	Streptococcus pyogenes	µg/mL	0.03

Now look at this one.
Request: Specify MIC50 for `CN(C)[C@@H]1C(O)=C(C(N)=O)C(=O)[C@@]2(O)C(O)=C3C(=O)c4c(O)cccc4[C@@](C)(O)[C@H]3C[C@@H]12` , system Streptococcus pyogenes.
Result: 0.12

----------
# Test system: Streptococcus mitis
# ASSAY_TEXT: Antibacterial activity against Streptococcus mitis clinical isolate by broth microdilution method
# Format: functional
Calls of active or inactive are those of the source. No cut-off for these calls is given here.
MEASURED_ATTRIBUTE: MIC90

ITEM_SMILES	MIC90
CN(C)[C@@H]1C(O)=C(C(N)=O)C(=O)[C@@]2(O)C(O)=C3C(=O)c4c(O)cccc4[C@@](C)(O)[C@H]3C[C@@H]12	inactive
CCC[C@@H]1C[C@@H](C(=O)N[C@@H]([C@H]2O[C@H](SC)[C@H](O)[C@@H](O)[C@H]2O)[C@H](C)Cl)N(C)C1	inactive
CC[C@H]1OC(=O)[C@H](C)C(=O)[C@H](C)[C@@H](O[C@@H]2O[C@H](C)C[C@H](N(C)C)[C@H]2O)[C@](C)(OC)C[C@@H](C)C(=O)[C@H](C)[C@H]2N(CCCCn3cnc(-c4cccnc4)c3)C(=O)O[C@]12C	inactive
CC(=O)NC[C@H]1CN(c2ccc(N3CCOCC3)c(F)c2)C(=O)O1	inactive
CO/N=C(\C(=O)N[C@@H]1C(=O)N2C(C(=O)O)=C(CSc3nc(=O)c(O)nn3C)CS[C@H]12)c1csc(N)n1	inactive

Request: Recall and state the measured MIC90 for `CCCCCCCCCCNCCN[C@@]1(C)C[C@H](O[C@H]2[C@H](Oc3c4cc5cc3Oc3ccc(cc3Cl)[C@@H](O)[C@@H](NC(=O)[C@@H](CC(C)C)NC)C(=O)N[C@@H](CC(N)=O)C(=O)N[C@H]5C(=O)N[C@H]3C(=O)N[C@H](C(=O)N[C@H](C(=O)O)c5cc(O)c(CNCP(=O)(O)O)c(O)c5-c5cc3ccc5O)[C@H](O)c3ccc(c(Cl)c3)O4)O[C@H](CO)[C@@H](O)[C@@H]2O)O[C@@H](C)[C@H]1O` .
Result: inactive

Request: Recall and state the measured MIC90 for `CN[C@H](CC(C)C)C(=O)N[C@H]1C(=O)N[C@@H](CC(N)=O)C(=O)N[C@H]2C(=O)N[C@H]3C(=O)N[C@H](C(=O)N[C@H](C(=O)O)c4cc(O)cc(O)c4-c4cc3ccc4O)[C@H](O)c3ccc(c(Cl)c3)Oc3cc2cc(c3O[C@@H]2O[C@H](CO)[C@@H](O)[C@H](O)[C@H]2O[C@H]2C[C@](C)(N)[C@H](O)[C@H](C)O2)Oc2ccc(cc2Cl)[C@H]1O` .
Result: inactive

Request: Recall and state the measured MIC90 for `CO/N=C(\C(=O)N[C@@H]1C(=O)N2C(C(=O)O)=C(COC(N)=O)CS[C@H]12)c1ccco1` .
Result: inactive

Request: Recall and state the measured MIC90 for `CC[C@H]1OC(=O)[C@H](C)[C@@H](O[C@H]2C[C@@](C)(OC)[C@@H](O)[C@H](C)O2)[C@H](C)[C@@H](O[C@@H]2O[C@H](C)C[C@H](N(C)C)[C@H]2O)[C@](C)(O)C[C@@H](C)C(=O)[C@H](C)[C@@H](O)[C@]1(C)O` .
Result: inactive

Request: Recall and state the measured MIC90 for `C[C@H]1COc2c(N3CCN(C)CC3)c(F)cc3c(=O)c(C(=O)O)cn1c23.C[C@H]1COc2c(N3CCN(C)CC3)c(F)cc3c(=O)c(C(=O)O)cn1c23.O` .
Result: inactive

Request: Recall and state the measured MIC90 for `CC1(C)S[C@@H]2[C@H](NC(=O)Cc3ccccc3)C(=O)N2[C@H]1C(=O)O` .
Result: inactive

Request: Recall and state the measured MIC90 for `CCCCCCCCCC(=O)N[C@@H](Cc1c[nH]c2ccccc12)C(=O)N[C@H](CC(N)=O)C(=O)N[C@@H](CC(=O)O)C(=O)N[C@@H]1C(=O)NCC(=O)N[C@@H](CCCN)C(=O)N[C@@H](CC(=O)O)C(=O)N[C@H](C)C(=O)N[C@@H](CC(=O)O)C(=O)NCC(=O)N[C@H](CO)C(=O)N[C@@H]([C@H](C)CC(=O)O)C(=O)N[C@@H](CC(=O)c2ccccc2N)C(=O)O[C@@H]1C` .
Result: inactive
